Assay: Primary redox qHTS assay for identification of artifact compounds. (AID 1845223);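 note: 0% = DMSO and 100% = reference compound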
Conditions: Amplex Red/HRP redox cycling with DTT, fluorescence; series mostly up to 53.8 µM
Records with an inconclusive call do not appear. Calls of active or inactive are those of the source. Calls come from the whole dose curve; as a rule, active = well fitted activation curve with a large enough effect; inconclusive = small, poorly fitted or top-dose-only effect; inactive = flat fitted curve, though single readings scatter. Where a SMILES comes first, the peptide text is derived from it.
MEASUREMENT_NAME: redox activity (% of DA3003)

>>> observed("CC1CCC2(C(=O)O)CCC3(C)C(=CCC4C5(C)CCC(O)C(C)(C(=O)O)C5CCC43C)C2C1(C)O (stereo not given)")
"inactive"
>>> observed("COc1cc(O)cc2c1C(=O)OC(C)CCCCCCC2 (stereo not given)")
"inactive"
>>> observed("COc1ccc(C2(O)c3c(ccc4c3OC(C)(CCC=C(C)C)C=C4)NC(=O)C2OC)cc1 (stereo not given)")
"inactive"
>>> observed("Cn1cc(-c2c[nH]c3ncnc(N4CCOCC4)c23)cn1")
"inactive"
>>> observed("CC(C)(O)[C@@H]1CC[C@]2(CO)[C@@H](O)CC[C@](C)(O)[C@H]2[C@@H]1O[C@@H]1O[C@H](CO)[C@@H](O)[C@H](O)[C@H]1O")
"inactive"
>>> observed("CSCC[C@H](NC(=O)[C@H](CO)NC(=O)[C@H](CCC(=O)O)NC(C)=O)C(=O)N[C@H](C=O)CC(=O)O (Ac-ESMD-aldehyde)")
"-1.61% [at 11.5 µM] (inactive)"
>>> observed("C=C1CC23CC(=O)C4C(CO)(CO)CCCC4(C)C2CCC1C3 (stereo not given)")
"inactive"
>>> observed("OC[C@@]1(O)CO[C@@H](OC[C@H]2O[C@@H](Oc3ccccc3)[C@H](O)[C@@H](O)[C@@H]2O)[C@@H]1O")
"inactive"
>>> observed("CC1=CC(=O)[C@]2(O[C@@H]3O[C@@H](C)[C@H](O)[C@@H](O)[C@H]3O)C=CO[C@@H](O[C@@H]3O[C@H](CO)[C@@H](O)[C@H](O)[C@H]3O)[C@H]12")
"inactive"
>>> observed("COc1ccc(CCC(=O)O)c(O[C@@H]2O[C@H](CO)[C@@H](O)[C@H](O)[C@H]2O)c1")
"inactive"
>>> observed("O=C(C[C@@H]1C(C(=O)O)=CO[C@@H](O[C@@H]2O[C@H](CO)[C@@H](O)[C@H](O)[C@H]2O)/C1=C\\CO)OCCc1ccc(O)cc1")
"inactive"
>>> observed("CC1(C)CC[C@]2(C(=O)O)CC[C@]3(C)C(=CCC4[C@@]5(C)C[C@@H](O)[C@H](O)[C@](C)(CO)C5CC[C@]43C)[C@@H]2[C@@H]1O (stereo not given in full)")
"inactive"
>>> observed("CC1(C)Oc2ncnc(N)c2N=C1c1ccc(C2CCC(CC(=O)O)CC2)cc1 (stereo not given)")
"inactive"
>>> observed("C/C=C(/C)C(=O)OC1CC(C)(C)CC2C3=CCC4C5(C)CCC(OC6OC(C)C(OC7OC(C(=O)O)C(O)C(OC8OC(CO)C(O)C(O)C8OC8OC(CO)C(O)C(O)C8O)C7O)C(O)C6O)C(C)(C)C5CCC4(C)C3(C)C(OC(=O)/C=C/C=C/C=C/CCC)C(OC(C)=O)C12CO (stereo not given)")
"13.7% [at 11.5 µM] (inactive)"
>>> observed("CC1CCC2(C(=O)O)CCC3(C)C(=CCC4C5(C)C[C@@H](O)[C@@H](O)C(C)(CO)C5CCC43C)C2C1(C)O (stereo not given in full)")
"inactive"

---

Test system: HaCat
Assay: Cytotoxic Profiling of Annotated Libraries Using Quantitative High-Throughput Screening (AID 1296008); note: % is set by controls: 0 for no effect and ±100 for the full control effect; nearly all actives have a fitted effect of over 60% in size
Details: Five cell lines viability, CellTiter-Glo ATP luminescence, 48-72 h; hits give low values
Results filed as inconclusive are left out.
MEASUREMENT_NAME: max response (%)

>>> observed("CC1(C)CC[C@]2(C(=O)O[C@@H]3O[C@H](CO[C@@H]4O[C@H](CO)[C@@H](O)[C@H](O)[C@H]4O)[C@@H](O)[C@H](O[C@@H]4O[C@H](CO)[C@@H](O)[C@H](O)[C@H]4O)[C@H]3O)CC[C@]3(C)C(=CCC4[C@@]5(C)CC[C@H](O[C@@H]6OC[C@@H](O)[C@H](O)[C@H]6O)[C@@](C)(C(=O)O)C5CC[C@]43C)[C@@H]2C1 (stereo partly drawn)")
-27.8
>>> observed("C=CC1(C)C=C2CC[C@H]3[C@@](C)(C(=O)O)CCC[C@]3(C)C2CC1 (stereo partly drawn)")
3.4
>>> observed("CN1CCN(c2nc(-c3ccc(C(=O)NC4(C(=O)NCC#N)CCCCC4)cc3)cs2)CC1")
1.43

---

System: Hek293T
Assay: Primary qHTS to identify gynecologic anti-cancer compounds using libraries of approved drugs and bioactive compounds (AID 1345084); note: % is set by controls: 0 for no effect and ±100 for the full control effect; nearly all actives have a fitted effect of over 55% in size
Details: Gynecologic cancer cell panel viability, ATPlite luminescence, 48 h, control line for the selectivity index; series mostly up to 57.5 µM
Results filed as inconclusive are left out. Calls of active or inactive are those of the source. Calls come from the whole dose curve; as a rule, active = well fitted cell-killing curve with a large enough effect; inconclusive = small, poorly fitted or top-dose-only effect, or effect the other way; inactive = flat fitted curve, though single readings scatter.
MEASUREMENT_NAME: activity change, negative = cytotoxicity

>>> observed("C=C1CC[C@]2(C(=O)O[C@@H]3O[C@H](CO)[C@@H](O)[C@H](O)[C@H]3O)CC[C@]3(C)C(=CCC4[C@@]5(C)C[C@H](O)[C@@H](O[C@@H]6O[C@H](C(=O)O)[C@@H](O)[C@H](O)[C@H]6O)[C@](C)(C=O)C5CC[C@]43C)C2C1 (some centres undefined)")
"2.33% [at 11.6 µM] (inactive)"
>>> observed("CC(=O)N[C@H](Cc1c[nH]c2ccccc12)C(=O)OCc1cc(C(F)(F)F)cc(C(F)(F)F)c1")
"inactive"
>>> observed("N#CC1C(=O)N=C(c2cc(Cl)ccc2O)C=C1c1cc(OCc2ccccc2)cc(OCc2ccccc2)c1 (centres undefined)")
"inactive"
>>> observed("CC1=C(CO)C2(C)CCCC(C)(C)C2C(O)C1O (centres undefined)")
"inactive"

---

Test: Primary qHTS for inhibitors of nuclear receptor binding SET domain protein 2 (NSD2) in an isogenic RCH-ACV NSD2 p.E1099K mutant (9B) (AID 1645876); note: nearly all actives have a fitted effect of over 70% in size
Conditions: RCH-ACV (leukaemia line) NSD2 E1099K (9B) viability, CellTiter-Glo, 72 h; series mostly up to 44.9 µM
Records with an inconclusive call do not appear. The source made the active and inactive calls. The call rests on the fitted dose curve; in most records, active means well fitted inhibition curve with a large enough effect; inconclusive means small, poorly fitted or top-dose-only effect; inactive means flat fitted curve, though single readings scatter.
MEASUREMENT_NAME: outcome

>>> observed("CC1(C)CC[C@]2(C(=O)O[C@@H]3O[C@H](CO)[C@@H](O)[C@H](O)[C@H]3O)CC[C@]3(C)C(=CCC4[C@@]5(C)CC[C@H](O[C@@H]6O[C@H](C(=O)O)[C@@H](O[C@@H]7O[C@H](CO)[C@@H](O)[C@H](O)[C@H]7O)[C@H](O)[C@H]6O)C(C)(C)C5CC[C@]43C)C2C1 (stereo partly drawn)")
"inactive [at 9.23 µM]"
>>> observed("C[C@@H]1CC[C@]2(C(=O)O[C@@H]3O[C@H](CO[C@@H]4O[C@H](CO)[C@@H](O[C@@H]5O[C@@H](C)[C@H](O)[C@@H](O)[C@H]5O)[C@H](O)[C@H]4O)[C@@H](O)[C@H](O)[C@H]3O)CC[C@]3(C)C(=CCC4[C@@]5(C)C[C@@H](O)[C@H](O)[C@@](C)(CO)C5CC[C@]43C)C2[C@H]1C (stereo partly drawn)")
"inactive [at 9.23 µM]"
>>> observed("O=C(O)[C@H]1Cc2ccccc2CN1")
"inactive [at 4.96 µM]"
>>> observed("C[C@@H]1O[C@@H](O[C@H]2[C@H](O[C@H]3[C@H](O[C@H]4CC[C@@]5(C)C(CC[C@]6(C)C5CC=C5[C@@H]7CC(C)(C)C[C@@H](O)[C@]7(C)CC[C@]56C)C4(C)C)O[C@H](C(=O)O)[C@@H](O)[C@@H]3O)O[C@H](C(=O)O)[C@H](O)[C@@H]2O)[C@H](O)[C@H](O)[C@H]1O (stereo partly drawn)")
"inactive [at 9.23 µM]"
>>> observed("C[C@@H]1O[C@@H](O[C@H]2[C@H](O[C@H]3[C@H](O[C@H]4CC[C@@]5(C)C(CC[C@]6(C)C5CC=C5[C@@H]7CC(C)(C)C[C@@H](O)[C@]7(C)CC[C@]56C)[C@@]4(C)CO)O[C@H](C(=O)O)[C@@H](O)[C@@H]3O)O[C@H](CO)[C@H](O)[C@@H]2O)[C@H](O)[C@H](O)[C@H]1O (stereo partly drawn)")
"inactive [at 9.23 µM]"
>>> observed("CC[C@H](C)[C@H](NC(=O)[C@H](Cc1ccc(O)cc1)NC(=O)[C@@H](N)C(C)C)C(=O)N[C@@H](Cc1cnc[nH]1)C(=O)N1CCC[C@H]1C(=O)N[C@@H](Cc1ccccc1)C(=O)O")
"inactive [at 4.96 µM]"
>>> observed("CC1OC(OC2C(OC3C(O[C@H]4CC[C@@]5(C)C(CC[C@]6(C)C5CC=C5C7CC(C)(C)CC(O)[C@]7(C)CC[C@]56C)C4(C)C)OC(C(=O)O)C(O)C3O)OCC(O)C2O)C(O)C(O)C1O (stereo partly drawn)")
"inactive [at 9.23 µM]"
>>> observed("C[C@@H]1O[C@@H](O[C@H]2[C@H](O)[C@@H](O)[C@H](OC[C@H]3O[C@@H](OC(=O)[C@]45CCC(C)(C)C[C@H]4C4=CCC6[C@@]7(C)C[C@@H](O)[C@H](O)[C@@](C)(CO)C7[C@H](O)C[C@@]6(C)[C@]4(C)CC5)[C@H](O)[C@@H](O)[C@@H]3O)O[C@@H]2CO)[C@H](O)[C@H](O)[C@H]1O (stereo partly drawn)")
"inactive [at 9.23 µM]"
